Provenance of the data: patent US7612208B2

- Test Description: Evaluation of solid stability (storage 2 weeks; total impurity by HPLC, water content, powder X-ray diffraction)
- Type: physicochemical
- Run Conditions: e-2: 60° C., 2 weeks (well closed; slightly open for Form I)
Recorded water content by entry

>  <Molecule>
COc1cc2nccc(Oc3ccc(NC(=O)NC4CC4)c(Cl)c3)c2cc1C(N)=O.CS(=O)(=O)O [mesylate (Form A)]

>  <water content / %>
0.2

$$$$
>  <Molecule>
COc1cc2nccc(Oc3ccc(NC(=O)NC4CC4)c(Cl)c3)c2cc1C(N)=O.CS(=O)(=O)O [mesylate (Form C)]

>  <water content / %>
0.5

$$$$
>  <Molecule>
CCS(=O)(=O)O.COc1cc2nccc(Oc3ccc(NC(=O)NC4CC4)c(Cl)c3)c2cc1C(N)=O [esylate (Form β)]

>  <water content / %>
2.2

$$$$
>  <Molecule>
CC(=O)O.COc1cc2nccc(Oc3ccc(NC(=O)NC4CC4)c(Cl)c3)c2cc1C(N)=O.CS(=O)(=O)O

>  <water content / %>
0.3

$$$$

* * *

- Test Description: Evaluation of solid stability (storage 2 weeks; total impurity by HPLC, water content, powder X-ray diffraction)
- Type: physicochemical
- Run Conditions: a-2: −20° C. (well closed), 2 weeks

>  <Molecule>
COc1cc2nccc(Oc3ccc(NC(=O)NC4CC4)c(Cl)c3)c2cc1C(N)=O.CS(=O)(=O)O [mesylate (Form A)]

>  <Display Unit>
%

>  <total impurity>
3.90

$$$$
>  <Molecule>
COc1cc2nccc(Oc3ccc(NC(=O)NC4CC4)c(Cl)c3)c2cc1C(N)=O.CS(=O)(=O)O [mesylate (Form C)]

>  <Display Unit>
%

>  <total impurity>
2.10

$$$$
>  <Molecule>
CCS(=O)(=O)O.COc1cc2nccc(Oc3ccc(NC(=O)NC4CC4)c(Cl)c3)c2cc1C(N)=O [esylate (Form β)]

>  <Display Unit>
%

>  <total impurity>
0.48

$$$$
>  <Molecule>
CC(=O)O.COc1cc2nccc(Oc3ccc(NC(=O)NC4CC4)c(Cl)c3)c2cc1C(N)=O.CS(=O)(=O)O

>  <Display Unit>
%

>  <total impurity>
0.67

$$$$

* * *

Reported total impurity values for a set of compounds
- Test Description: Evaluation of solid stability (storage 2 weeks; total impurity by HPLC, water content, powder X-ray diffraction)
- Type: physicochemical
- Run Conditions: solid stability test, initial; HPLC relative area

>  <Compound>
COc1cc2nccc(Oc3ccc(NC(=O)NC4CC4)c(Cl)c3)c2cc1C(N)=O.CS(=O)(=O)O [mesylate (Form A)]

>  <total impurity / %>
4.02

$$$$
>  <Compound>
CCS(=O)(=O)O.COc1cc2nccc(Oc3ccc(NC(=O)NC4CC4)c(Cl)c3)c2cc1C(N)=O [esylate (Form β)]

>  <total impurity / %>
0.55

$$$$
>  <Compound>
COc1cc2nccc(Oc3ccc(NC(=O)NC4CC4)c(Cl)c3)c2cc1C(N)=O.CS(=O)(=O)O [mesylate (Form C)]

>  <total impurity / %>
2.11

$$$$
>  <Compound>
CC(=O)O.COc1cc2nccc(Oc3ccc(NC(=O)NC4CC4)c(Cl)c3)c2cc1C(N)=O.CS(=O)(=O)O

>  <total impurity / %>
0.62

$$$$

* * *

- Test Description: Study of pharmacokinetics in beagle dogs
- Type: in vivo
- Run Conditions: dog, plasma; beagle dogs n=3, oral, gelatin capsule, 3 mg/kg as free form, fasted; mean ± standard error; read-out: AUC0-24hr

>  <Compound>
COc1cc2nccc(Oc3ccc(NC(=O)NC4CC4)c(Cl)c3)c2cc1C(N)=O [free form]

>  <AUC(0-t)>
0.6 µg·h/mL

$$$$
